Test: activity coefficient (dimensionless); of the first substance listed, at infinite dilution; xn = mol fraction of the nth substance listed
Details: 358.25 K; 101 kPa; Liquid; Chromatography; x1 = 0
test readout: activity coefficient
API note: the answer field is a bare number with no unit suffix.

Quick one: activity coefficient for CCCCCCl [1-chloropentane] + NCCCCCCCCCCCCN ?
2.73

Quick one: activity coefficient for CCCCCCCC [octane] + NCCCCCCCCCCCCN ?
5.27

Quick one: activity coefficient for CCCCOC(C)=O [butyl ethanoate] + NCCCCCCCCCCCCN ?
1.46

Quick one: activity coefficient for CCOCC [diethyl ether] + NCCCCCCCCCCCCN ?
4.33

Quick one: activity coefficient for CCc1ccccc1 [ethylbenzene] + NCCCCCCCCCCCCN ?
2.42

Quick one: activity coefficient for CCCCCCC [heptane] + NCCCCCCCCCCCCN ?
5.04

* * *

Assay: activity coefficient (dimensionless); of the first substance listed, at infinite dilution; xn = mol fraction of the nth substance listed
Conditions: 338.15 K; 101 kPa; Liquid; Chromatography; x1 = 0
test readout: activity coefficient
API note: the answer field is a bare number with no unit suffix.

Quick one: activity coefficient for C=CCCCCC [1-heptene] + NCCCCCCCCN ?
3.21

Quick one: activity coefficient for CCc1ccccc1 [ethylbenzene] + NCCCCCCCCN ?
1.86

Quick one: activity coefficient for CCCCCCCC [octane] + NCCCCCCCCN ?
4.4

Quick one: activity coefficient for Cc1ccccc1 [toluene] + NCCCCCCCCN ?
2.17

Quick one: activity coefficient for CCCCCl [1-chlorobutane] + NCCCCCCCCN ?
1.65

Quick one: activity coefficient for CCCO [propan-1-ol] + NCCCCCCCCN ?
0.58

Quick one: activity coefficient for CCCCO [butan-1-ol] + NCCCCCCCCN ?
0.675

* * *

Assay: activity coefficient (dimensionless); of the first substance listed, at infinite dilution; xn = mol fraction of the nth substance listed
Conditions: 348.15 K; 101 kPa; Liquid; Chromatography; x1 = 0
Threshold 3. activity coefficient below it: true. activity coefficient at it or above: false.

Just wondering, is activity coefficient of Cc1ccccc1 [toluene] + NCCCCCCCCN below 3?
true

Just wondering, is activity coefficient of CCCCCCCCCC [decane] + NCCCCCCCCN below 3?
false

Just wondering, is activity coefficient of CCCCCCl [1-chloropentane] + NCCCCCCCCN below 3?
true

Just wondering, is activity coefficient of C=CCCCCCCCC [1-decene] + NCCCCCCCCN below 3?
false

Just wondering, is activity coefficient of CCCCCC [hexane] + NCCCCCCCCN below 3?
false

Just wondering, is activity coefficient of CCCOC(C)=O [propyl ethanoate] + NCCCCCCCCN below 3?
true

Just wondering, is activity coefficient of CCO [ethanol] + NCCCCCCCCCCN below 3?
true

Just wondering, is activity coefficient of CCCCOC(C)=O [butyl ethanoate] + NCCCCCCCCCCN below 3?
true

Just wondering, is activity coefficient of CCCCCCC [heptane] + NCCCCCCCCN below 3?
false

Just wondering, is activity coefficient of CCCOC(C)=O [propyl ethanoate] + NCCCCCCCCCCN below 3?
true

Just wondering, is activity coefficient of c1ccccc1 [benzene] + NCCCCCCCCN below 3?
true
